Source listed as PubChem BioAssay.

- test_system: Calmodulin-1 (Homo sapiens)
- assay: CALM1 binders on microarrays, EGTA buffer, profiling panel, biochemical, small-molecule microarray, Cy5-labelled CALM1 (AID 1111);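 further: labelled calmodulin applied in Tris saline Tween buffer holding calcium plus EGTA and DTT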
- conditions_used: Cy5-CALM1 binding fluorescence, higher = more signal
I'd be grateful if you could share measured composite z-score for these entries.
Numbers only.

Worked cases, answers included:
compound	recorded_endpoint	assay_value
CN1C(=O)C2C=CC(C(O)c3cccc(O)c3)N(Nc3ccccc3)C2C1=O (configuration not stated)	composite z-score	-0.185
CCOC(=O)C[C@H]1[C@H](OC(=O)c2cc3ccccc3oc2=O)[C@@H](NC(=O)Cc2ccc(OC)cc2)c2cc(OCCCO)ccc2N1C(=O)c1ccc2ccccc2n1	composite z-score	-0.0597
O=C1OCC=C[C@H]2OC34C=CCN(Cc5ccccc5)C(=O)[C@H]3N(CCCCCCO)C(=O)[C@@H]4[C@@H]12 (some centres not stated)	composite z-score	-0.274

I would be grateful if you could provide composite z-score for each of the following entries.
1. C=CC[C@@]1(C(=O)N2CCOCC2)N=C(c2ccc(OCCCO)cc2)O[C@@H]1c1ccccc1CN=[N+]=[N-]
2. [N-]=[N+]=NCc1ccccc1C[C@@]1(C(=O)NCc2ccccc2)N=C(c2ccc(OCCCO)cc2)O[C@@H]1c1ccccc1N=[N+]=[N-]

[1.9, 1.31]

Here are 2 compounds. What values of composite z-score were reported for them?
1. CC(C)C(CO)N1C(=O)[C@@H]2C3C(=O)OCCC/C=C\[C@H]3OC23C=CCN(C(C)(C)C)C(=O)[C@@H]13 (some centres not stated)
2. COCCOC(=O)N1C(=O)[C@@]2(c3cc(C#Cc4ccc(OC)cc4)ccc31)[C@H](c1ccccc1OCCO)N1[C@H](c3ccccc3)[C@H](c3ccccc3)OC(=O)[C@H]1[C@@H]2C(=O)N1CCCCCCC1

[-0.903, 2.84]
